System: metastin receptors
measurement-description: Measurement of agonist activity by assaying changes in intracellular calcium ion level (FLIPR, Fluo-4 NW)
Type: cell-based, human
condition-label: specific activity of the EC50 of a test compound based on the EC50 of Metastin (45-54), metastin receptor expression CHO cells
*1 amine or outer side, *2 acyl side, *3 side chain or, on linkers, in order; H or OH if unused. Where a SMILES comes first, the peptide text is derived from it. [ ]: non-standard residue; d: D form. Glyψ(E-CHCH)Leu = CC(C)C[C@H](/C=C/CN[*:1])C(=O)[*:2]; X2 = O=C(/C=C/[C@@H](O)[C@H](Cc1ccccc1)N[*:1])[*:2]; Arg(Me) = CNC(=N)NCCC[C@H](N)C(=O)O; Hyp = O=C(O)[C@@H]1C[C@@H](O)CN1; 2Pal = N[C@@H](Cc1ccccn1)C(=O)O; 4Pal = N[C@@H](Cc1ccncc1)C(=O)O; Cha = N[C@@H](CC1CCCCC1)C(=O)O
Quick reference for Specific Activity among some molecules
Just the number.

- molecule: "CNC(=N)NCCC[C@H](NC(=O)[C@H](CC(C)C)NC(=O)/C=C/[C@@H](O)[C@H](Cc1ccccc1)NC(=O)[C@@H](NC(=O)[C@H](CC(N)=O)NC(=O)[C@@H]1C[C@@H](O)CN1C(=O)[C@@H](Cc1ccc(O)cc1)NC(C)=O)[C@@H](C)O)C(=O)N[C@@H](Cc1c[nH]c2ccccc12)C(N)=O [Compound No. 866] (Ac-[dY][Hyp]NT[X2]L[Arg(Me)]W-NH2)"
  test-value: 1.4
- molecule: "CNC(=N)NCCC[C@H](NC(=O)[C@H](CC(C)C)NC(=O)CNC(=O)[C@H](Cc1ccncc1)NC(=O)[C@@H](NC(=O)[C@H](CC(N)=O)NC(=O)[C@@H]1C[C@@H](O)CN1C(=O)[C@@H](Cc1ccc(O)cc1)NC(C)=O)[C@@H](C)O)C(=O)N[C@@H](Cc1c[nH]c2ccccc12)C(N)=O [Compound No. 849] (Ac-[dY][Hyp]NT[4Pal]GL[Arg(Me)]W-NH2)"
  test-value: 0.9
- molecule: "CNC(=N)NCCC[C@H](NC(=O)[C@@H](/C=C/CNC(=O)[C@H](CC1CCCCC1)NC(=O)[C@@H](NC(=O)[C@H](CCC(N)=O)NC(=O)[C@@H]1C[C@@H](O)CN1C(=O)[C@@H](Cc1ccc(O)cc1)NC(C)=O)[C@@H](C)O)CC(C)C)C(=O)N[C@@H](Cc1c[nH]c2ccccc12)C(N)=O [Compound No. 913] (Ac-[dY][Hyp]QT[Cha][Glyψ(E-CHCH)Leu][Arg(Me)]W-NH2)"
  test-value: 1.4

[Q] # query: Specific Activity of entry CC(=O)N[C@H](Cc1ccc(O)cc1)C(=O)N1C[C@H](O)C[C@H]1C(=O)N[C@@H](CC(N)=O)C(=O)N[C@H](C(=O)N[C@@H](Cc1ccccc1)C(=O)NC/C=C/[C@@H](CC(C)C)C(=O)N[C@@H](CCCNC(=N)N)C(=O)N[C@@H](Cc1c[nH]c2ccccc12)C(N)=O)[C@@H](C)O [Compound No. 925] (Ac-[dY][Hyp]NTF[Glyψ(E-CHCH)Leu]RW-NH2)
[A] 0.4

[Q] # query: Specific Activity of entry CNC(=N)NCCC[C@H](NC(=O)[C@@H](/C=C/CNC(=O)[C@H](Cc1ccccc1)NC(=O)[C@@H](NC(=O)[C@H](CC(N)=O)NC(=O)[C@@H]1C[C@@H](O)CN1C(=O)[C@@H](Cc1ccc(O)cc1)NC(C)=O)[C@@H](C)O)CC(C)C)C(=O)N[C@@H](Cc1c[nH]c2ccccc12)C(N)=O [Compound No. 892] (Ac-[dY][Hyp]NTF[Glyψ(E-CHCH)Leu][Arg(Me)]W-NH2)
[A] 0.6

[Q] # query: Specific Activity of entry CNC(=N)NCCC[C@H](NC(=O)[C@H](CC(C)C)NC(=O)CNC(=O)[C@H](Cc1ccccn1)NC(=O)[C@@H](NC(=O)[C@H](CC(N)=O)NC(=O)[C@@H]1C[C@@H](O)CN1C(=O)[C@@H](Cc1ccc(O)cc1)NC(C)=O)[C@@H](C)O)C(=O)N[C@@H](Cc1c[nH]c2ccccc12)C(N)=O [Compound No. 839] (Ac-[dY][Hyp]NT[2Pal]GL[Arg(Me)]W-NH2)
[A] 1.2
